The reported measurements were obtained from patent EP0391169A2.

# Test system: Providencia stuartei 12052
# Protocol Text: MIC agar dilution test (Denley Multipoint Inoculator; Iso-Sensitest agar)
# Format: cell-based
# Condition Info: 37° C, ca. 20 h, read-out: MHK-Werte
Metric Name: MIC (µg/mL)

[P] N[C@@H]1CCN(c2c(F)cc3c(=O)c(C(=O)O)cn(C4CC4)c3c2Cl)C1 [Beispiel 2]
[Q] Cc1c(F)c(N2CC[C@@H](N)C2)cc2c1c(=O)c(C(=O)O)cn2C1CC1 [Beispiel 6]
Exercise: I'm curious whether P or Q has the smaller MIC number. Which is it? Answer by stating the label of the chosen item.
Solution: P

[A] N[C@H]1CCN(c2c(F)cc3c(=O)c(C(=O)O)cn(C4CC4)c3c2F)C1 [Beispiel 3]
[B] Cc1c(F)c(N2CC[C@H](N)C2)cc2c1c(=O)c(C(=O)O)cn2C1CC1 [Beispiel 5]
Exercise: Could you point out whether the larger MIC belongs to A or to B ? Answer by stating the label of the chosen item.
Solution: B
(B: 4 µg/mL, A: 0.25 µg/mL)

[A] NC1CCN(c2c(F)cc3c(=O)c(C(=O)O)cn(C4CC4)c3c2F)C1 (racemic) [**), reference compound]
[B] N[C@@H]1CCN(c2c(F)cc3c(=O)c(C(=O)O)cn(C4CC4)c3c2F)C1 [Beispiel 4]
Exercise: Could you point out whether the larger MIC belongs to A or to B ? Answer by stating the label of the chosen item.
Solution: B

###

# Test system: E. coli 455/7
# Protocol Text: MIC agar dilution test (Denley Multipoint Inoculator; Iso-Sensitest agar)
# Assay type: cell-based
# Condition Info: Escherichia coli, 37° C, ca. 20 h, read-out: MHK-Werte
Metric Name: MIC (µg/mL)

[P] Cc1c(F)c(N2CC[C@H](N)C2)cc2c1c(=O)c(C(=O)O)cn2C1CC1 [Beispiel 5]
[Q] N[C@@H]1CCN(c2c(F)cc3c(=O)c(C(=O)O)cn(C4CC4)c3c2F)C1 [Beispiel 4]
[R] N[C@@H]1CCN(c2c(F)cc3c(=O)c(C(=O)O)cn(C4CC4)c3c2Cl)C1 [Beispiel 2]
Exercise: Returns the items ordered by MIC, from maximum to minimum. Return value: ordered labels per request.
Solution: P, Q, R

[a] NC1CCN(c2c(F)cc3c(=O)c(C(=O)O)cn(C4CC4)c3c2F)C1 (racemic) [**), reference compound]
[b] Cc1c(F)c(N2CC[C@@H](N)C2)cc2c1c(=O)c(C(=O)O)cn2C1CC1 [Beispiel 6]
Exercise: Could you point out whether the larger MIC belongs to a or to b ? Answer by stating the label of the chosen item.
Solution: b
(b: 8 µg/mL, a: 0.25 µg/mL)

###

# Tested on: E. coli Neumann
Metric Name: MIC (ng/mL)

# annotated cases, reported MIC shown
NC1CCN(c2c(F)cc3c(=O)c(C(=O)O)cn(C4CC4)c3c2Cl)C1 (racemic) [*), reference compound]	1.9
NC1CCN(c2c(F)cc3c(=O)c(C(=O)O)cn(C4CC4)c3c2F)C1 (racemic) [**), reference compound]	3.9

[I] N[C@H]1CCN(c2c(F)cc3c(=O)c(C(=O)O)cn(C4CC4)c3c2F)C1 [Beispiel 3]
[II] N[C@@H]1CCN(c2c(F)cc3c(=O)c(C(=O)O)cn(C4CC4)c3c2F)C1 [Beispiel 4]
[III] N[C@@H]1CCN(c2c(F)cc3c(=O)c(C(=O)O)cn(C4CC4)c3c2Cl)C1 [Beispiel 2]
Exercise: // sort entries: MIC, high to low Return value: ordered labels per request.
Solution: II, I, III
(II: 7.8 ng/mL, I: 3.9 ng/mL, III: 1.9 ng/mL)

###

# Test system: E. coli A261
Metric Name: MIC (ng/mL)

# annotated cases, reported MIC shown
N[C@H]1CCN(c2c(F)cc3c(=O)c(C(=O)O)cn(C4CC4)c3c2F)C1 [Beispiel 3]	3.9
NC1CCN(c2c(F)cc3c(=O)c(C(=O)O)cn(C4CC4)c3c2F)C1 (racemic) [**), reference compound]	3.9

[a] N[C@@H]1CCN(c2c(F)cc3c(=O)c(C(=O)O)cn(C4CC4)c3c2Cl)C1 [Beispiel 2]
[b] N[C@@H]1CCN(c2c(F)cc3c(=O)c(C(=O)O)cn(C4CC4)c3c2F)C1 [Beispiel 4]
[c] NC1CCN(c2c(F)cc3c(=O)c(C(=O)O)cn(C4CC4)c3c2Cl)C1 (racemic) [*), reference compound]
[d] N[C@H]1CCN(c2c(F)cc3c(=O)c(C(=O)O)cn(C4CC4)c3c2Cl)C1 [Beispiel 1]
Exercise: Hi! Can you put these in order of MIC, lowest number first? Return value: ordered labels per request.
Solution: d, c, a, b
(d: 0.9 ng/mL, c: 1.9 ng/mL, a: 3.9 ng/mL, b: 7.8 ng/mL)

###

# MIC measurements, system: Morg. morg. 11006
Metric Name: MIC (ng/mL)

# annotated cases, reported MIC shown
NC1CCN(c2c(F)cc3c(=O)c(C(=O)O)cn(C4CC4)c3c2F)C1 (racemic) [**), reference compound]	7.8
NC1CCN(c2c(F)cc3c(=O)c(C(=O)O)cn(C4CC4)c3c2Cl)C1 (racemic) [*), reference compound]	7.8
N[C@H]1CCN(c2c(F)cc3c(=O)c(C(=O)O)cn(C4CC4)c3c2F)C1	7.8

[1] N[C@H]1CCN(c2c(F)cc3c(=O)c(C(=O)O)cn(C4CC4)c3c2Cl)C1
[2] N[C@@H]1CCN(c2c(F)cc3c(=O)c(C(=O)O)cn(C4CC4)c3c2Cl)C1
Exercise: I'm curious whether 1 or 2 has the smaller MIC number. Which is it? Answer by stating the label of the chosen item.
Solution: 1

###

# MIC measurements, system: Proteus mir. 8223
Metric Name: MIC (µg/mL)

# annotated cases, reported MIC shown
N[C@H]1CCN(c2c(F)cc3c(=O)c(C(=O)O)cn(C4CC4)c3c2Cl)C1	0.25
N[C@@H]1CCN(c2c(F)cc3c(=O)c(C(=O)O)cn(C4CC4)c3c2Cl)C1	0.25

[P] N[C@H]1CCN(c2c(F)cc3c(=O)c(C(=O)O)cn(C4CC4)c3c2F)C1
[Q] NC1CCN(c2c(F)cc3c(=O)c(C(=O)O)cn(C4CC4)c3c2F)C1 (racemic) [**), reference compound]
[R] Cc1c(F)c(N2CC[C@H](N)C2)cc2c1c(=O)c(C(=O)O)cn2C1CC1
[S] Cc1c(F)c(N2CC[C@@H](N)C2)cc2c1c(=O)c(C(=O)O)cn2C1CC1
Exercise: Hi! Can you put these in order of MIC, lowest number first? Return value: ordered labels per request.
Solution: P, Q, R, S
(P: 0.25 µg/mL, Q: 0.5 µg/mL, R: 4 µg/mL, S: 8 µg/mL)

[a] N[C@@H]1CCN(c2c(F)cc3c(=O)c(C(=O)O)cn(C4CC4)c3c2F)C1
[b] NC1CCN(c2c(F)cc3c(=O)c(C(=O)O)cn(C4CC4)c3c2Cl)C1 (racemic) [*), reference compound]
Exercise: I'm curious whether a or b has the smaller MIC number. Which is it? Answer by stating the label of the chosen item.
Solution: b
(b: 0.25 µg/mL, a: 0.5 µg/mL)
